target system: Human orexin receptor type 2 (Homo sapiens)
Construct: expressed in transfected cells; host or cells: CHO cells (transient expression, with apoaequorin)
Sequence (O43614 1-444): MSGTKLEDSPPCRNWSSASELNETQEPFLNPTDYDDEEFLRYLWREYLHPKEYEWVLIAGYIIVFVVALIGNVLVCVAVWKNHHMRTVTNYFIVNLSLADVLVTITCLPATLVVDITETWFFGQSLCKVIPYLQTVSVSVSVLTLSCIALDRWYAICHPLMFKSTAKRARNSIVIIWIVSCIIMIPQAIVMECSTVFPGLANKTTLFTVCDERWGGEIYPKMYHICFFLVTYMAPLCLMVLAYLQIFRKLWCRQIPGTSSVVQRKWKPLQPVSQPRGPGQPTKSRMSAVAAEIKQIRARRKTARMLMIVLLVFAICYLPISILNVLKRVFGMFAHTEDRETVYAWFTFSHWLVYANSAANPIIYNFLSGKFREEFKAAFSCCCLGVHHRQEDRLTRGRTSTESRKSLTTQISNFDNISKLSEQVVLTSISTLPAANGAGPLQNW
protocol description: Test Example 1: agonist activity for orexin receptor type 2 (aequorin luminescence, intracellular calcium mobilization in CHO cells)
Assay type: cell-based
condition summary: compound 10 μM; relative percentage of luminescence for the luminescence (100%) of Orexin A (100 μM); CHO cells transiently expressing human orexin receptor type 2 and apoaequorin
For each record, write down the corresponding Agonist Activity (%).
Write the number in % without appending the unit.

Supply reported Agonist Activity (%) belonging to this compound: `CC(C)N1CCN([C@H]2CCCC(F)(F)[C@@H]2NC(=O)N2C[C@H]3C[C@@H](c4noc(C5CC5)n4)C[C@H]3C2)CC1` 423

Read the entry `CC(C)N1CCN([C@H]2CCCC(F)(F)[C@@H]2NC(=O)N2C[C@H]3C[C@@H](c4ccc(F)cc4)C[C@H]3C2)CC1` and write its reported Agonist Activity (%). 511

Fill in reported Agonist Activity (%) for this entry: `CC(C)N1CCN([C@H]2CCCC(F)(F)[C@@H]2NC(=O)N2C[C@@H]3C[C@](C)(c4noc(C5CC5)n4)C[C@@H]3C2)CC1` 282

Could you please provide reported Agonist Activity (%) for `CC(C)N1CCN([C@H]2CCCC(F)(F)[C@@H]2NC(=O)N2CC[C@H]3C[C@H](c4noc(C5CC5)n4)[C@H]3C2)CC1` ? Thanks! 79

Return the recorded Agonist Activity (%) value; entry: `CC(C)N1CCN([C@H]2CCCC(F)(F)[C@@H]2NC(=O)N2C[C@@H]3[C@H](C2)[C@@H]3c2noc(C3CC3)n2)CC1` 15

Annotate the compound `Cc1ccccc1[C@@H]1C[C@@H]2CN(C(=O)N[C@@H]3[C@@H](N4CCN(C(C)C)CC4)CCCC3(F)F)C[C@@H]2C1` with its measured Agonist Activity (%). 446

Supply reported Agonist Activity (%) belonging to this compound: `CC(C)N1CCN([C@H]2CCCC(F)(F)[C@@H]2NC(=O)N2C[C@H]3C[C@@H](c4ccccc4)C[C@H]3C2)CC1` 424

Tell me measured Agonist Activity (%) for `Cc1ccc([C@@H]2C[C@@H]3CN(C(=O)N[C@@H]4[C@@H](N5CCN(C(C)C)CC5)CCCC4(F)F)C[C@@H]3C2)cc1` please. 466

Return reported Agonist Activity (%). Input compound: `CC(C)N1CCN([C@H]2CCCC(F)(F)[C@@H]2NC(=O)N2C[C@H]3C[C@@H](c4ccccc4F)C[C@H]3C2)CC1` 315

Read the entry `CC(C)N1CCN([C@H]2CCCC(F)(F)[C@@H]2NC(=O)N2C[C@H]3C[C@H](c4noc(C5CC5)n4)C[C@H]3C2)CC1` and write its reported Agonist Activity (%). 375

Annotate the compound `CC(C)N1CCN([C@H]2CCCC(F)(F)[C@@H]2NC(=O)N2C[C@H]3C[C@@H](c4cccc(F)c4)C[C@H]3C2)CC1` with its measured Agonist Activity (%). 491

Answer with the recorded Agonist Activity (%) of `CC(C)N1CCN([C@H]2CCCC(F)(F)[C@@H]2NC(=O)N2C[C@@H]3CN(c4ccccc4)C[C@@H]3C2)CC1` only. 477

Quote Agonist Activity (%) reported for `CC(C)N1CCN([C@H]2CCCC(F)(F)[C@@H]2NC(=O)N2C[C@H]3C[C@H](c4noc([C@@H]5C[C@@H]5F)n4)C[C@H]3C2)CC1` please. 275

###

target system: Human orexin receptor type 2 (Homo sapiens, UniProt O43614)
Construct: expressed in transfected cells; host or cells: CHO cells (transient expression, with apoaequorin)
protocol description: Test Example 1: agonist activity for orexin receptor type 2 (aequorin luminescence, intracellular calcium mobilization in CHO cells)
Format: cell-based
condition summary: compound 10 μM; relative percentage of luminescence for the luminescence (100%) of Orexin A (100 μM); CHO cells transiently expressing human orexin receptor type 2 and apoaequorin
Can you tell me Agonist Activity (%) for the items I'm about to list?
The reply should be a number in %, with the unit left off.

Provide only the value of recorded Agonist Activity (%) for CC(C)N1CCN([C@H]2CCCC(F)(F)[C@@H]2NC(=O)N2C[C@H]3CC(c4ccccc4)C[C@H]3C2)CC1 (stereo partly shown) 492

Consider the molecule `CC(C)N1CCN([C@H]2CCCC(F)(F)[C@@H]2NC(=O)N2C[C@@H]3C[C@](C)(c4noc([C@@H]5C[C@@H]5F)n4)C[C@@H]3C2)CC1` . State its measured Agonist Activity (%). 328

Check the records and state Agonist Activity (%) for `CC(C)N1CCN([C@H]2CCCC(F)(F)[C@@H]2NC(=O)N2C[C@@H]3[C@H](C2)[C@H]3c2noc(C3CC3)n2)CC1` 217

Supply reported Agonist Activity (%) belonging to this molecule: `CC(C)N1CCN([C@H]2CCCC(F)(F)[C@@H]2NC(=O)N2C[C@H]3CC(c4ccccc4)=C[C@H]3C2)CC1` 450

###

Would you mind telling me the reported Agonist Activity (%) of each entry?
target system: Human orexin receptor type 2 (Homo sapiens)
Construct: expressed in transfected cells; host or cells: CHO cells (transient expression, with apoaequorin)
protocol description: Test Example 2: agonist activity for orexin receptor type 2 (aequorin luminescence, intracellular calcium mobilization in CHO cells)
Assay type: cell-based
condition summary: compound 10 μM; relative percentage of luminescence for the luminescence (100%) of Orexin A (100 μM); CHO cells transiently expressing human orexin receptor type 2 and apoaequorin
Answer with a number only, understood to be in %.

Write down measured Agonist Activity (%) (Human orexin receptor type 2 (Homo sapiens)) for this compound. Cc1nc(C2C[C@@H]3CN(C(=O)N[C@@H]4[C@@H](N(C)[C@H]5CCN(C(C)C)C5)CCCC4(F)F)C[C@@H]3C2)no1 (some centres unmarked) 252

State Agonist Activity (%) on Human orexin receptor type 2 (Homo sapiens). Entry: `CC(C)N1CC[C@H](N(C)[C@H]2CCCC(F)(F)[C@@H]2NC(=O)N2C[C@@H]3CN(c4ccccc4)C[C@@H]3C2)C1` 341

Using Human orexin receptor type 2 (Homo sapiens) as the test system, report measured Agonist Activity (%) of CC(C)N1CC[C@H](N(C)[C@H]2CCCC(F)(F)[C@@H]2NC(=O)N2C[C@H]3CC(c4ccccc4)C[C@H]3C2)C1 (some centres unmarked) . 343

Determine reported Agonist Activity (%) for `CC(C)N1CCN([C@H]2CCCC(F)(F)[C@@H]2NC(=O)N2C[C@@H]3CN(c4cccc(F)c4)C[C@@H]3C2)CC1` ; test system: Human orexin receptor type 2 (Homo sapiens). 399

Recall the reported Agonist Activity (%) of `Cc1cccc([C@@H]2C[C@@H]3CN(C(=O)N[C@@H]4[C@@H](N5CCN(C(C)C)CC5)CCCC4(F)F)C[C@@H]3C2)c1` on Human orexin receptor type 2 (Homo sapiens) and write it down. 414

Report Agonist Activity (%) under test system Human orexin receptor type 2 (Homo sapiens) for `Cc1ccc(N2C[C@H]3CN(C(=O)N[C@@H]4[C@@H](N5CCN(C(C)C)CC5)CCCC4(F)F)C[C@H]3C2)cc1` . 404

Specify Agonist Activity (%) for CC(C)N1CC[C@H](O[C@H]2CCCC(F)(F)[C@@H]2NC(=O)N2C[C@H]3CC(c4ccccc4)C[C@H]3C2)C1 (some centres unmarked) , system Human orexin receptor type 2 (Homo sapiens). 400

State Agonist Activity (%) on Human orexin receptor type 2 (Homo sapiens). Entry: Cc1nc(C2C[C@H]3CC(C(=O)N[C@@H]4[C@@H](O[C@H]5CCN(C(C)C)C5)CCCC4(F)F)C[C@H]3C2)no1 (some centres unmarked) 345

Using Human orexin receptor type 2 (Homo sapiens) as the test system, report measured Agonist Activity (%) of `CC(C)N1CCN([C@H]2CCCC(F)(F)[C@@H]2NC(=O)N2C[C@@H]3CN(c4ccccc4F)C[C@@H]3C2)CC1` . 390

Report measured Agonist Activity (%) on Human orexin receptor type 2 (Homo sapiens); entry: `CC(C)N1CCN([C@H]2CCCC(F)(F)[C@@H]2NC(=O)N2C[C@@H]3CN(c4ccccn4)C[C@@H]3C2)CC1` 345

Write Agonist Activity (%) of `Cc1nc([C@@H]2C[C@@H]3CN(C(=O)N[C@@H]4[C@@H](N5CCN(C(C)C)CC5)CCCC4(F)F)C[C@@H]3C2)no1` ; system used: Human orexin receptor type 2 (Homo sapiens) 374

Name the recorded Agonist Activity (%) of `CC(C)N1CC[C@H](O[C@H]2CCCC(F)(F)[C@@H]2NC(=O)N2C[C@@H]3CN(c4ccccc4)C[C@@H]3C2)C1` , assay system Human orexin receptor type 2 (Homo sapiens). 393

State Agonist Activity (%) (Human orexin receptor type 2 (Homo sapiens)) of `CC(C)N1CCN([C@H]2CCCC(F)(F)[C@@H]2NC(=O)N2C[C@H]3C[C@@H](c4ccccn4)C[C@H]3C2)CC1` . 396

Give Agonist Activity (%) for `CC(C)N1CCN([C@H]2CCCC(F)(F)[C@@H]2NC(=O)N2C[C@H]3C[C@@H](c4ncccn4)C[C@H]3C2)CC1` tested on Human orexin receptor type 2 (Homo sapiens). 345
